test: Protease stability in simulated gastric fluids (FaSSGF) (Table 7); assay type: in vitro ADME; conditions: fassgf with pepsin, 60 min, 37° C., read-out: Remaining percentage of peptide compound, FaSSGF 60 (min)
Numbered stars: 1 amine (or outer) side, 2 acyl side, 3 side chain; on linkers, the order of the positions; unused ones are H or OH. Bridge positions count the residues as written; N and C are the ends. Square brackets hold non-standard residues; d marks the D form. Peptide text beside a SMILES is read from it. * marks the point of attachment. Lys(Me,(CH2)4NMe(CH2)5CO) = CN(CCCCCC(=O)[*:3])CCCCN(C)CCCC[C@H](N[*:1])C(=O)[*:2]; Lys(Me,(CH2)4NMe(CH2)4CO) = CN(CCCCC(=O)[*:3])CCCCN(C)CCCC[C@H](N[*:1])C(=O)[*:2]; Trp(7-Me) = Cc1cccc2c(C[C@H](N)C(=O)O)c[nH]c12; αMeLys(Me2) = CN(C)CCCC[C@](C)(N)C(=O)O; 2Nal = N[C@@H](Cc1ccc2ccccc2c1)C(=O)O; 3Pal = N[C@@H](Cc1cccnc1)C(=O)O; 12Ado = NCCCCCCCCCCCC(=O)O; Aun = NCCCCCCCCCCC(=O)O; Thp = NC1(C(=O)O)CCOCC1; Me2NCH2CH2 = CN(C)CC*; Aib = CC(C)(N)C(=O)O; Sar = CNCC(=O)O
Here the recorded remaining at 1 h, 1 µM is given for each entry.
OBSERVATION TYPE: remaining at 1 h, 1 µM (%)

| MOLECULE | MEASUREMENT UNIT | REPORTED VALUE |
| --- | --- | --- |
| CC(=O)NCCCC[C@@H]1NC(=O)[C@H](Cc2c[nH]c3c(C)cccc23)NC(=O)CCCCCCCCCCNC(=O)CC[C@@H](C(=O)N[C@@H](CC(N)=O)C(=O)N[C@@H](Cc2cccnc2)C(=O)N(C)CC(N)=O)NC(=O)C(C)(C)NC(=O)[C@H](Cc2ccc3ccccc3c2)NC(=O)[C@H](Cc2ccc(OCCN(C)C)cc2)NC(=O)C2(CCOCC2)NC1=O [compound 16] ([Aun][Trp(7-Me)]K(Ac)[Thp]Y(Me2NCH2CH2)[2Nal][Aib]EN[3Pal][Sar]-NH2; lactam N-8) | % | 88 |
| CC(=O)NCCCC[C@@H]1NC(=O)[C@H](Cc2c[nH]c3c(C)cccc23)NC(=O)CCCCN(C)CCCCN(C)CCCC[C@@H](C(=O)N[C@@H](CC(N)=O)C(=O)N[C@@H](Cc2cccnc2)C(=O)N(C)CC(N)=O)NC(=O)C(C)(C)NC(=O)[C@H](Cc2ccc3ccccc3c2)NC(=O)[C@H](Cc2ccc(OCCN(C)C)cc2)NC(=O)C2(CCOCC2)NC1=O [compound 32] ([Trp(7-Me)]K(Ac)[Thp]Y(Me2NCH2CH2)[2Nal][Aib][Lys(Me,(CH2)4NMe(CH2)4CO)]N[3Pal][Sar]-NH2; lactam N-7) | % | 97 |
| Cc1cccc2c(C[C@@H]3NC(=O)CCCCCCCCCCCNC(=O)CC[C@@H](C(=O)N[C@@H](CC(N)=O)C(=O)N[C@@H](Cc4cccnc4)C(=O)N(C)CC(N)=O)NC(=O)C(C)(C)NC(=O)[C@H](Cc4ccc5ccccc5c4)NC(=O)[C@H](Cc4ccc(OCCN(C)C)cc4)NC(=O)C4(CCOCC4)NC(=O)[C@H](CCC(N)=O)NC3=O)c[nH]c12 [compound 2] ([12Ado][Trp(7-Me)]Q[Thp]Y(Me2NCH2CH2)[2Nal][Aib]EN[3Pal][Sar]-NH2; lactam N-8) | % | 73 |
| CC(=O)NCCCC[C@@H]1NC(=O)[C@H](Cc2c[nH]c3c(C)cccc23)NC(=O)CCCCCCCCCCNC(=O)CC[C@@H](C(=O)N[C@@H](CC(N)=O)C(=O)N[C@@H](Cc2cccnc2)C(=O)N(C)CC(N)=O)NC(=O)[C@](C)(CCCCN(C)C)NC(=O)[C@H](Cc2ccc3ccccc3c2)NC(=O)[C@H](Cc2ccc(OCCN(C)C)cc2)NC(=O)C2(CCOCC2)NC1=O [compound 21] ([Aun][Trp(7-Me)]K(Ac)[Thp]Y(Me2NCH2CH2)[2Nal][αMeLys(Me2)]EN[3Pal][Sar]-NH2; lactam N-8) | % | 91 |
| CC(=O)NCCCC[C@@H]1NC(=O)[C@H](Cc2c[nH]c3c(C)cccc23)NC(=O)CCCCCN(C)CCCCN(C)CCCC[C@@H](C(=O)NCC(=O)N[C@@H](Cc2cccnc2)C(=O)N(C)CC(N)=O)NC(=O)C(C)(C)NC(=O)[C@H](Cc2ccc3ccccc3c2)NC(=O)[C@H](Cc2ccc(OCCN(C)C)cc2)NC(=O)C2(CCOCC2)NC1=O [compound 27] ([Trp(7-Me)]K(Ac)[Thp]Y(Me2NCH2CH2)[2Nal][Aib][Lys(Me,(CH2)4NMe(CH2)5CO)]G[3Pal][Sar]-NH2; lactam N-7) | % | 100 |
